- EXPERIMENTAL SYSTEM: Carbonic anhydrase 9 (Homo sapiens)
- METHOD DESCRIPTION: Inhibition of recombinant human carbonic anhydrase 9 by stopped flow CO2 hydrase assay
ASSAY ENDPOINT: pKi
Answers are plain numbers, as −log10 of the molar value.

{"COMPOUND STRUCTURE STRING": "N#Cc1ccc(-c2nnc(-c3cccc(S(N)(=O)=O)c3)o2)cc1", "EXPERIMENTAL SYSTEM": "Carbonic anhydrase 9 (Homo sapiens)", "NUMERIC VALUE": 7.12}

Provide each entry's pKi from the list below.
1. NS(=O)(=O)c1cccc(-c2nnc(-c3ccc(Cl)cc3)o2)c1
2. COc1cc(-c2nnc(-c3cccc(S(N)(=O)=O)c3)o2)cc(OC)c1OC
3. NS(=O)(=O)c1cccc(-c2nnc(-c3cccs3)o2)c1
4. NS(=O)(=O)c1cccc(-c2nnc(-c3cccc([N+](=O)[O-])c3)o2)c1

A:
1. 7.26
2. 7.17
3. 7.07
4. 7.36

Provide each entry's pKi from the list below.
1. NS(=O)(=O)c1cccc(-c2nnc(-c3ccc([N+](=O)[O-])cc3)o2)c1
2. NS(=O)(=O)c1cccc(-c2nnc(-c3ccc(Cl)cc3Cl)o2)c1
3. NS(=O)(=O)c1cccc(-c2nnc(-c3ccccc3)o2)c1
4. COc1ccc(-c2nnc(-c3cccc(S(N)(=O)=O)c3)o2)c(OC)c1

A:
[7.24, 7.12, 6.97, 7.09]

Q: I am curious: what pKi value has been reported for `COc1ccc(OC)c(-c2nnc(-c3cccc(S(N)(=O)=O)c3)o2)c1` ?
A: 7.11

---

- EXPERIMENTAL SYSTEM: Carbonic anhydrase 1 (Homo sapiens, UniProt P00915)
- Sequence (P00915 whole entry): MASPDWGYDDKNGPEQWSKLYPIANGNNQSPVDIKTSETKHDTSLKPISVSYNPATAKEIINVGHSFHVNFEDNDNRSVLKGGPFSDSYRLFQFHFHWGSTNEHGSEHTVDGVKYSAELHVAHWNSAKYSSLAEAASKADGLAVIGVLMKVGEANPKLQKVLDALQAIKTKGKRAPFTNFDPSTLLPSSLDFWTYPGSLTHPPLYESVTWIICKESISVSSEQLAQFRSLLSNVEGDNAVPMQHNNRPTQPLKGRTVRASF
- METHOD DESCRIPTION: Inhibition of recombinant human carbonic anhydrase 1 by stopped flow CO2 hydrase assay
For each of the molecules below, state its Ki.

Example cases with answers are listed next.
{"COMPOUND STRUCTURE STRING": "COc1ccc(-c2nnc(-c3ccc(OC)c(S(N)(=O)=O)c3)o2)c(OC)c1", "ASSAY ENDPOINT": "Ki", "RESULT": "> 10 µM"}
{"COMPOUND STRUCTURE STRING": "COc1ccc(-c2nnc(-c3ccccc3)o2)cc1S(N)(=O)=O", "ASSAY ENDPOINT": "Ki", "RESULT": "> 10 µM"}
{"COMPOUND STRUCTURE STRING": "Cc1ccc(-c2nnc(-c3ccc(Cl)cc3Cl)o2)cc1S(N)(=O)=O", "ASSAY ENDPOINT": "Ki", "RESULT": "> 10 µM"}
{"COMPOUND STRUCTURE STRING": "Cc1ccc(-c2nnc(-c3cccc([N+](=O)[O-])c3)o2)cc1S(N)(=O)=O", "ASSAY ENDPOINT": "Ki", "RESULT": "> 10 µM"}
{"COMPOUND STRUCTURE STRING": "COc1ccc(-c2nnc(-c3ccc(C)c(S(N)(=O)=O)c3)o2)c(OC)c1", "ASSAY ENDPOINT": "Ki", "RESULT": "> 10 µM"}
{"COMPOUND STRUCTURE STRING": "Cc1ccc(-c2nnc(-c3ccc(Cl)cc3)o2)cc1S(N)(=O)=O", "ASSAY ENDPOINT": "Ki", "RESULT": "> 10 µM"}
{"COMPOUND STRUCTURE STRING": "Cc1ccc(-c2nnc(-c3ccccc3)o2)cc1S(N)(=O)=O", "ASSAY ENDPOINT": "Ki", "RESULT": "> 10 µM"}
{"COMPOUND STRUCTURE STRING": "COc1ccc(-c2nnc(-c3cccc([N+](=O)[O-])c3)o2)cc1S(N)(=O)=O", "ASSAY ENDPOINT": "Ki", "RESULT": "> 10 µM"}

Now consider a different molecule.
Q: I am curious: what Ki value has been reported for `Cc1ccc(-c2nnc(-c3ccc(C#N)cc3)o2)cc1S(N)(=O)=O` ?
A: > 10 µM
